experimental protocol: RAM signaling pathway blockade in yeast – S. cerevisiae, Pdr1DBD-CYC8 efflux-inhibited sensitized strain, primary screen (AID 1298);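 also: 0% = DMSO untreated cells without growth and 100% = 10 µM 1-NA-PP1 full growth; higher means more yeast growth rescued from 5-FOA killing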
run parameters: S. cerevisiae cbk1-as DSE1-URA3 strain, 5-FOA growth OD615, 2 d; at 50 µM; stronger effect = higher value
readout name: RAM network inhibition (%)

{"compound": "Cc1cc(C)n2nc(S(=O)(=O)NC3CCCCC3)nc2n1", "value reported": -0.89}
{"compound": "Nc1nc2n(n1)C(c1ccccc1Cl)CC(c1ccc(F)cc1)N2 (stereo unspecified)", "value reported": 0.48}
{"compound": "Cc1cccc(N2CCN(C(c3cccs3)c3nnnn3C(C)(C)C)CC2)c1C (stereo unspecified)", "value reported": 5.15}
{"compound": "Cn1c(Cn2c(=O)sc3ccccc32)nnc1SCC(=O)Nc1ccccc1F", "value reported": 9.24}
{"compound": "CCCc1cc(C(=O)N2CCN(C(c3ccccc3)c3ccccc3)CC2)no1", "value reported": 5.99}
{"compound": "O=C(Nc1nnc(-c2cccs2)o1)c1cccc(Oc2ccccc2)c1", "value reported": 2.76}
{"compound": "CC(C)c1ccc(C2CC(=O)N3CN(C)CSC3=C2C#N)cc1 (stereo unspecified)", "value reported": -0.52}
{"compound": "Cc1ccc(C)c(NC(=O)CSc2nc3c(c(=O)n2C)SC(C)C3)c1 (stereo unspecified)", "value reported": 3.86}
{"compound": "O=C(NCC1CCCO1)C1CCCCN1S(=O)(=O)c1ccc(F)cc1 (stereo unspecified)", "value reported": 1.44}
{"compound": "CCCCn1c(=NC(=O)c2ccco2)c(C(=O)OCC)cc2c(=O)n3ccccc3nc21", "value reported": 1.9}
{"compound": "Cc1cccc(NC(=O)CSc2nnc(-c3ccccc3)n2N)c1C", "value reported": 0.16}

###

experimental protocol: reversal of MRP1-mediated doxorubicin resistance, pilot screen, H69AR cells, doxorubicin co-treatment (AID 601)
run parameters: H69AR cells + 2 uM doxorubicin, CellTiter-Glo, 72 h; measured here: viability with 2 uM doxorubicin; at 10 µM; stronger effect = lower value
Entries and their measured viability follow.

{"molecule": "Nc1cc(CN2C(=O)c3ccccc3C2=O)cc(Cl)c1O", "display unit": "%", "viability": 79.2}
{"molecule": "CCN(CC)S(=O)(=O)c1ccc(Br)c(OC)c1", "display unit": "%", "viability": 91.3}
{"molecule": "CCOC(=O)C(CCc1nnc(N)s1)C(=O)OCC", "display unit": "%", "viability": 95.2}
{"molecule": "COC(=O)c1ccccc1NC(=O)C1CCCCC1C(=O)O (configuration not stated)", "display unit": "%", "viability": 91.8}
{"molecule": "CCC(=O)Nc1ccc2nc(SCC(=O)N3CCCC3)sc2c1", "display unit": "%", "viability": 88.5}
{"molecule": "S=c1[nH]nc(-c2cccc(Br)c2)o1", "display unit": "%", "viability": 92.6}
{"molecule": "CC1=CCC(C(C)(C)NC(=O)c2ccccc2)C/C1=N\\O (configuration not stated)", "display unit": "%", "viability": 88.6}
{"molecule": "Cc1cccc(-c2cc3nc4c(c(N5CCOCC5)n3n2)CCCC4)c1", "display unit": "%", "viability": 78.4}
{"molecule": "c1ccc2[nH]c(-c3cscn3)nc2c1", "display unit": "%", "viability": 102}
{"molecule": "N#Cc1ccc(CSc2nnc(-c3cnccn3)o2)cc1", "display unit": "%", "viability": 82.5}
{"molecule": "NC(=O)CSc1nnc(-c2ccc(O)cc2)n1Cc1ccco1", "display unit": "%", "viability": 89.3}
{"molecule": "COc1ccccc1CNC(=O)N[C@@H](Cc1ccccc1)C(=O)O", "display unit": "%", "viability": 81}
